# target of assay: human ERα (Homo sapiens)
# Construct: expressed in transfected cells; host or cells: HAECT-1 cells (immortalized human aortic endothelial cells) infected with Ad5-wt-hERα adenovirus
# Sequence (P03372 whole entry): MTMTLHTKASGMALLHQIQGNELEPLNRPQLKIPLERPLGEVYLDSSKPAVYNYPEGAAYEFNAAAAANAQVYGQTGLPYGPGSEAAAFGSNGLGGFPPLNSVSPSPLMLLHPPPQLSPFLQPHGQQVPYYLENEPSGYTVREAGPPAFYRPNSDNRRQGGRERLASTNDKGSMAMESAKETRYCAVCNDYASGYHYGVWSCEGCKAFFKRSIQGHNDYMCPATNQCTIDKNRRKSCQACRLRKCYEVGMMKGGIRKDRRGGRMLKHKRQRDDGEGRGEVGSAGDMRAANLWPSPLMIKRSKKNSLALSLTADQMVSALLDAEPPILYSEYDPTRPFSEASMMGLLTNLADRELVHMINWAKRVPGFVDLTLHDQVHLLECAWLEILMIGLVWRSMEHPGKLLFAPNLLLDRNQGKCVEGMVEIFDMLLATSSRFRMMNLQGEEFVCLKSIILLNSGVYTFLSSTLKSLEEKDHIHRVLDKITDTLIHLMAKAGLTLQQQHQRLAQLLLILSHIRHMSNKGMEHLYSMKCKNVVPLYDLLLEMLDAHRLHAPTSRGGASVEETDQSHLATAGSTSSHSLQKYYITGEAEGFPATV
# assay method text: Creatine kinase (CK) assay in ERα infected HAECT-1 cells
# Assay type: cell-based
# condition set: efficacy relative to E2, value in parentheses after the EC50
Record form. Attribute: CK (% E2). Fill in for each entry.
Quick note: unit goes after the number.

Input C[C@@H]1c2ccccc2-c2ccc(Cl)cc2N1C(=O)c1ccc(O)cc1 . Output CK (% E2): 32%

Query C[C@@H]1c2ccccc2-c2ccc(Cl)cc2N1C(=O)c1cccc(O)c1 yields CK (% E2) of 26%

The reported CK (% E2) of the compound C[C@@H]1c2cc(F)ccc2-c2ccccc2N1C(=O)c1ccc(Cl)c(O)c1 was −29%

// sample C[C@@H]1c2ccccc2-c2ccc(F)cc2N1C(=O)c1ccc(O)cc1O (single isomer, unassigned) , its CK (% E2) was 20%
